B1: library; the commonest letter at each place (parent)
chain: MKPVTLYDVAEYAGVSYQTVSRVVNQASHVSAKTREKVEAAMAELNYIPNRVAQQLAGKQSLLIGVATSSLALHAPSQIVAAIKSRADQLGASVVVSMVERSGVEACKAAVHNLLAQRVSGLIINYPLDDQDAIAVEAACTNVPALFLDVSDQTPINSIIFSHEDGTRLGVEHLVALGHQQIALLAGPLSSVSARLRLAGWHKYLTRNQIQPIAEREGDWSAMSGFQQTMQMLNEGIVPTAMLVANDQMALGAMRAITESGLRVGADISVVGYDDTEDSSCYIPPLTTIKQDFRLLGQTSVDRLLQLSQGQAVKGNQLLPVSLVKRKTTLAPNTQTASPRALADSLMQLARQVSRLESGQ

# Variants of: B1
# Procedure details: basal output G0 (YFP, no IPTG) (log10 MEF); higher = higher reporter expression without inducer
# Assay setup: with IPTG
Listing of entries alongside the reported basal output G0 (log10).
Assay endpoint: basal output G0 (log10)

INSERT INTO assay_data (mutation_code, value) VALUES
  ('S69T I83M S97T', 1.17),
  ('Q89L S158C E172K Q291H', 3.34),
  ('N113D D132N T154R M242I V313A K314N R340S', 1.59),
  ('S70R S97T F161V', 3.29),
  ('I83M S97T', 1.25),
  ('F161S', 3.04),
  ('Q55K G121V N333I', 2.37),
  ('Q181H', 2.24),
  ('E100V T299I', 3.09),
  ('D88N', 0.96),
  ('L56M D130E', 4.03),
  ('S70R', 2.58),
  ('V95M Q335R Q360R', 2.02),
  ('F161V', 1.98),
  ('V80L I83M', 0.521),
  ('T68I', 3.24),
  ('L56M', 3.98),
  ('V80L', 1.75),
  ('V80L S97T', 2.33),
  ('I64V V95M Q131R T141A D152E N208I A222T L295M K327N', 3.59),
  ('S69T', 2.07),
  ('N208Y', 2.24),
  ('M42I', 0.821),
  ('V94M S190C G200A Q209R R263H Q317L', 3.42),
  ('D88G', 0.914);
